Target: cloned human dopamine D3 receptors (Homo sapiens, UniProt P35462)
Construct: expressed in transfected cells; membrane homogenate
Sequence (P35462 whole entry): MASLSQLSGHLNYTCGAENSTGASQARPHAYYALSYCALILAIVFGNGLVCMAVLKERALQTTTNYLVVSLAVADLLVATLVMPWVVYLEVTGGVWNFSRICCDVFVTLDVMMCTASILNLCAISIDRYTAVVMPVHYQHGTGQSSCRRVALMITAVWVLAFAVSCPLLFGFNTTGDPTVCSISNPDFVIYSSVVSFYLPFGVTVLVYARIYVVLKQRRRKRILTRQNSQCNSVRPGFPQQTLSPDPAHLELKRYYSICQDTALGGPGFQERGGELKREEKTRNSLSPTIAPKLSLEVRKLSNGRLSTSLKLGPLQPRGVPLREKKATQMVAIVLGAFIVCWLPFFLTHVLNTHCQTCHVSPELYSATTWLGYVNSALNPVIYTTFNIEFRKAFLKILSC
Assay: [N-Methyl-3H]Spiroperidol binding to cloned human dopamine D3 receptors
Conditions: read-out: D3 Ki
REPORTED METRIC: Ki (nM)
Give a bare numeral; the unit nM is implied.

query: API: value(readout=Ki, system=cloned human dopamine D3 receptors (Homo sapiens, UniProt P35462)) for record COc1ccc2c(c1)c(N1CCN(C[C@@H]3C[C@H]3C(=O)NCCCN3CCCCC3)CC1)nn2C
result: 138

---

Listing of entries alongside the reported log10 Ki.
Molecular target: cloned human dopamine D3 receptors (Homo sapiens)
Construct: expressed in transfected cells; membrane homogenate
Assay: [N-Methyl-3H]Spiroperidol binding to cloned human dopamine D3 receptors
Settings: read-out: D3 Ki
// do not treat as linear: log10 of Ki, unit nM

Consider the following illustrative entries.
query: API: value(readout=log10 Ki, system=cloned human dopamine D3 receptors (Homo sapiens)) for record O=C(NCCCN1CCSCC1)[C@@H]1C[C@H]1CN1CCN(c2nn(-c3ccc(C(F)(F)F)cc3)c3ccsc23)CC1
result: 1.95

query: API: value(readout=log10 Ki, system=cloned human dopamine D3 receptors (Homo sapiens)) for record O=C(N[C@H]1CC[C@H](O)CC1)C1(CCN2CCN(c3csc4cc(C(F)(F)F)ccc34)CC2)CC1
result: 2.15

query: API: value(readout=log10 Ki, system=cloned human dopamine D3 receptors (Homo sapiens)) for record O=C(N[C@H]1CC[C@H](O)CC1)[C@@H]1C[C@H]1CN1CCN(c2nn(-c3cccc(F)c3)c3ccsc23)CC1
result: 2.69

query: API: value(readout=log10 Ki, system=cloned human dopamine D3 receptors (Homo sapiens)) for record Cn1nc(N2CCN(C[C@@H]3C[C@H]3C(=O)NCCCn3cnc4ccccc43)CC2)c2sccc21
result: 1.94

query: API: value(readout=log10 Ki, system=cloned human dopamine D3 receptors (Homo sapiens)) for record C[C@H]1CC[C@H](NC(=O)[C@@H]2C[C@H]2CN2CCC(c3nsc4cc(Br)ccc34)CC2)CC1
result: 0.28

***
query: API: value(readout=log10 Ki, system=cloned human dopamine D3 receptors (Homo sapiens)) for record O=C([C@@H]1C[C@H]1CN1CCN(c2csc3cc(C(F)(F)F)ccc23)CC1)N1CCCC(CN2CCCNCC2)C1 (mixture of isomers)
result: 0.95

query: API: value(readout=log10 Ki, system=cloned human dopamine D3 receptors (Homo sapiens)) for record O=C(C1CC1CN1CCC(c2noc3ccsc23)CC1)N1CCN(S(=O)(=O)c2ccc(-c3ccccc3)cc2)CC1 (racemic)
result: 1.97

---

Target: cloned human dopamine D3 receptors (Homo sapiens)
Construct: expressed in transfected cells; membrane homogenate
Assay: [N-Methyl-3H]Spiroperidol binding to cloned human dopamine D3 receptors
Conditions: read-out: D3 Ki
Listing of entries alongside the reported pKi.
Schema: pKi number; meaning minus log10 of the concentration expressed in molar units.

Consider the following illustrative entries.
query: For the compound shown here, COc1cccc2c(C3CCN(C[C@@H]4C[C@H]4C(=O)NCCCn4ccnc4)CC3)nn(C)c12 , give the reported pKi.
result: 7.04

query: For the compound shown here, O=C([C@@H]1C[C@H]1CN1CCC(c2noc3ccsc23)CC1)N1CCN(Cc2ccc(Cl)c(Cl)c2)CC1 , give the reported pKi.
result: 7.84

***
query: For the compound shown here, CC(C)(C)c1ccc(CCNC(=O)C2CC2CN2CCC(c3noc4ccsc34)CC2)cc1 (racemic) , give the reported pKi.
result: 7.45

query: For the compound shown here, O=C(NCc1ccc(-c2csnn2)cc1)[C@@H]1C[C@H]1CN1CCN(c2csc3cc(C(F)(F)F)ccc23)CC1 , give the reported pKi.
result: 7.32

query: For the compound shown here, O=C(NCc1ccc(-c2ccccc2)cc1)C1CC1CN1CCC(c2noc3ccsc23)CC1 (racemic) , give the reported pKi.
result: 8.17

query: For the compound shown here, NCCN1CCN(C(=O)[C@@H]2C[C@H]2CN2CCN(c3csc4cc(C(F)(F)F)ccc34)CC2)CC1 , give the reported pKi.
result: 8.46

query: For the compound shown here, COc1cccc2c(C3CCN(C[C@@H]4C[C@H]4C(=O)N4CCC(C(=O)c5ccc(F)cc5)CC4)CC3)noc12 , give the reported pKi.
result: 6.91

---

Target: cloned human dopamine D3 receptors (Homo sapiens, UniProt P35462)
Construct: expressed in transfected cells; membrane homogenate
Assay: [N-Methyl-3H]Spiroperidol binding to cloned human dopamine D3 receptors
Conditions: read-out: D3 Ki
REPORTED METRIC: pKi
Schema: pKi number; meaning minus log10 of the concentration expressed in molar units.

Consider the following illustrative entries.
query: API: value(readout=pKi, system=cloned human dopamine D3 receptors (Homo sapiens, UniProt P35462)) for record O=C(C1CC1CN1CCC(c2noc3ccsc23)CC1)N1CCN(S(=O)(=O)c2ccccc2)CC1 (racemic)
result: 6.63

query: API: value(readout=pKi, system=cloned human dopamine D3 receptors (Homo sapiens, UniProt P35462)) for record O=C(N[C@H]1CC[C@H](O)CC1)[C@@H]1C[C@H]1CN1CCN(c2nn(-c3ccc(F)cc3)c3ccsc23)CC1
result: 8.75

query: API: value(readout=pKi, system=cloned human dopamine D3 receptors (Homo sapiens, UniProt P35462)) for record O=C(NCCC1=CCCCC1)[C@@H]1C[C@H]1CN1CCC(c2noc3ccsc23)CC1
result: 8.23

Proceeding to the next compound to report its pKi.
query: API: value(readout=pKi, system=cloned human dopamine D3 receptors (Homo sapiens, UniProt P35462)) for record O=C(NCCCn1ccnc1)C1(CCN2CCC(c3noc4ccsc34)CC2)CC1
result: 8.31

---

Listing of entries alongside the reported pKi.
Biological target: cloned human dopamine D3 receptors (Homo sapiens)
Construct: expressed in transfected cells; membrane homogenate
Experiment: [N-Methyl-3H]Spiroperidol binding to cloned human dopamine D3 receptors
Settings: read-out: D3 Ki
Schema: pKi number; meaning minus log10 of the concentration expressed in molar units.

Consider the following illustrative entries.
query: API: value(readout=pKi, system=cloned human dopamine D3 receptors (Homo sapiens)) for record O=C(NCCCN1CCCCC1)[C@@H]1C[C@H]1CN1CCN(c2csc3cc(C(F)(F)F)ccc23)CC1
result: 9.73

query: API: value(readout=pKi, system=cloned human dopamine D3 receptors (Homo sapiens)) for record C[C@H]1CC[C@H](NC(=O)[C@@H]2C[C@H]2CN2CCC(c3noc4ccc(C(F)(F)F)cc34)CC2)CC1
result: 9.62

query: API: value(readout=pKi, system=cloned human dopamine D3 receptors (Homo sapiens)) for record O=C(NCCCc1cc[nH]c1)C1CC1CN1CCC(c2noc3ccsc23)CC1 (racemic)
result: 8.11

query: API: value(readout=pKi, system=cloned human dopamine D3 receptors (Homo sapiens)) for record O=C(NC1CCN(Cc2cc(F)ccc2F)CC1)[C@@H]1C[C@H]1CN1CCN(c2nn(-c3ccc(OC(F)(F)F)cc3)c3ccsc23)CC1
result: 8.03

query: API: value(readout=pKi, system=cloned human dopamine D3 receptors (Homo sapiens)) for record O=C(NC1CCN(Cc2cccc(C(F)(F)F)c2)CC1)C1CC1CN1CCC(c2noc3ccsc23)CC1 (racemic)
result: 8.20

***
query: API: value(readout=pKi, system=cloned human dopamine D3 receptors (Homo sapiens)) for record O=C([C@@H]1C[C@H]1CN1CCN(c2csc3cc(C(F)(F)F)ccc23)CC1)N1CCN(CCO)CC1
result: 7.43

query: API: value(readout=pKi, system=cloned human dopamine D3 receptors (Homo sapiens)) for record O=C(NCCCn1ccnc1)[C@@H]1C[C@H]1CN1CCN(c2nn(-c3ccc(OC(F)(F)F)cc3)c3ccsc23)CC1
result: 8.09

---

Target: cloned human dopamine D3 receptors (Homo sapiens, UniProt P35462)
Construct: expressed in transfected cells; membrane homogenate
Assay: [N-Methyl-3H]Spiroperidol binding to cloned human dopamine D3 receptors
Conditions: D3 Ki
REPORTED METRIC: Ki (nM)
Give a bare numeral; the unit nM is implied.

query: For the molecule shown here, O=C([C@@H]1C[C@H]1CN1CCN(c2csc3cc(C(F)(F)F)ccc23)CC1)N1CCC(Nc2ccc(Cl)cc2)CC1 , give the reported Ki.
result: 63.6

---

Biological target: cloned human dopamine D3 receptors (Homo sapiens)
Construct: expressed in transfected cells; membrane homogenate
Assay: [N-Methyl-3H]Spiroperidol binding to cloned human dopamine D3 receptors
Conditions: read-out: D3 Ki
REPORTED METRIC: Ki (nM)
Give a bare numeral; the unit nM is implied.

query: For the compound shown here, CCC1CCC(NC(=O)C2CC2CN2CCC(Cc3ccccc3)CC2)CC1 (racemic) , give the reported Ki.
result: 19.4

query: For the compound shown here, CCC(C)OC(=O)n1cc(C2CCN(C[C@@H]3C[C@H]3C(=O)N3CCC[C@@H](Cn4ccnc4)C3)CC2)c2ccc(C(F)(F)F)cc21 (stereo partly shown) , give the reported Ki.
result: 1.87

query: For the compound shown here, CC1CCC(NC(=O)C2CC2CN2CCN(Cc3ccccc3)CC2)CC1 (racemic) , give the reported Ki.
result: 177

***
query: For the compound shown here, O=C(C1CC1CN1CCC(c2noc3ccsc23)CC1)N1CCN(CCc2ccncc2)CC1 (racemic) , give the reported Ki.
result: 79.6
